measurement-target: human Gal-1 (hGal-1) (Homo sapiens, UniProt P09382, C131S/C17S/C43S/C61S/C89S)
assay-protocol: Competitive binding assay: biotinylated hGal-1 binding to microplate-adsorbed asialofetuin (ASF)
run-parameters: IC50 values from several measurements given as geomean

compound | measurement-target | IC50 (µM)
CO[C@@H]1[C@@H](n2cc(-c3ccc(Cl)c(F)c3F)nn2)[C@@H](O)[C@@H](CO)O[C@@H]1Cc1cn(C2CC(C(F)(F)F)(C(F)(F)F)C2)nn1 [Ex 2.1.57.] | human Gal-1 (hGal-1) (Homo sapiens, UniProt P09382, C131S/C17S/C43S/C61S/C89S) | 28.1
CO[C@@H]1[C@@H](n2cc(-c3ccc(Cl)c(F)c3F)nn2)[C@@H](O)[C@@H](CO)O[C@@H]1Cn1cc(C2(O)CC2)nn1 [Ex 2.2.36.] | human Gal-1 (hGal-1) (Homo sapiens, UniProt P09382, C131S/C17S/C43S/C61S/C89S) | 3.16
CO[C@@H]1[C@@H](n2cc(-c3ccc(Br)c(F)c3F)nn2)[C@@H](O)[C@@H](CO)O[C@@H]1Cc1cn(C2(CF)CCC2)nn1 [Ex 4.1.40.] | human Gal-1 (hGal-1) (Homo sapiens, UniProt P09382, C131S/C17S/C43S/C61S/C89S) | 1.03
CO[C@@H]1[C@@H](n2cc(-c3ccc(Cl)c(F)c3F)nn2)[C@@H](O)[C@@H](CO)O[C@@H]1Cc1cn(C2CCCCC2(F)F)nn1 (single isomer, unassigned) [Example 2.1.80.A] | human Gal-1 (hGal-1) (Homo sapiens, UniProt P09382, C131S/C17S/C43S/C61S/C89S) | 1.02
CO[C@@H]1[C@@H](n2cc(-c3ccc(Cl)c(F)c3F)nn2)[C@@H](O)[C@@H](CO)O[C@@H]1Cn1cc(C2CCCC2)nn1 [Ex 2.2.32.] | human Gal-1 (hGal-1) (Homo sapiens, UniProt P09382, C131S/C17S/C43S/C61S/C89S) | 3.81
